Measured Activity by item
# Test system: Rattus norvegicus
# protocol notes: Antiinflammatory activity in Albino rat assessed as inhibition of carrageenan-induced paw edema at 50 mg/kg, po administered 1 hr before carrageenan challenge by micro-pipette method relative to control
# Assay type: functional
# Parameters: scale not given: the % may be the effect or the level left
// note: answer is a bare numeric in %

compound	observed
Clc1ccc(-c2[nH]c3ccccc3c2-c2csc(/N=C/c3c[nH]c4ccccc34)n2)cc1	31.8
CCc1[nH]c2ccccc2c1C(=N/c1nc(-c2c(-c3ccc(Cl)cc3)[nH]c3ccccc23)co1)/N=N/c1ccc(Cl)cc1	23.5
CCc1[nH]c2ccccc2c1C(=N/c1nc(-c2c(-c3ccc(Cl)cc3)[nH]c3ccccc23)cs1)/N=N/c1ccc(OC)cc1	13.5
COc1ccc(/N=N/C(=N\c2nc(-c3c(-c4ccc(Cl)cc4)[nH]c4ccccc34)cs2)c2c[nH]c3ccccc23)cc1	19.2
COc1ccc(/N=N/C(=N\c2nc(-c3c(-c4ccc(Cl)cc4)[nH]c4ccccc34)cs2)c2c(-c3ccccc3)[nH]c3ccccc23)cc1	11.5
Clc1ccc(-c2[nH]c3ccccc3c2-c2csc(/N=C/c3c(-c4ccccc4)[nH]c4ccccc34)n2)cc1	19.7

Query block: GET /values?readout=Activity&item= Clc1ccc(/N=N/C(=N\c2nc(-c3c(-c4ccc(Cl)cc4)[nH]c4ccccc34)co2)c2c(-c3ccccc3)[nH]c3ccccc23)cc1
Result block: 27.9

Query block: GET /values?readout=Activity&item= CCc1[nH]c2ccccc2c1/C=N/c1nc(-c2c(-c3ccc(Cl)cc3)[nH]c3ccccc23)cs1
Result block: 25.8

Query block: GET /values?readout=Activity&item= CCCCC1C(=O)N(c2ccccc2)N(c2ccccc2)C1=O [PHENYLBUTAZONE]
Result block: 38.8

Query block: GET /values?readout=Activity&item= Cc1[nH]c2ccccc2c1/C=N/c1nc(-c2c(-c3ccc(Cl)cc3)[nH]c3ccccc23)cs1
Result block: 53.3
